value type: melting point

Inquiry: Field request: melting point | item: OC(COc1ccc(-c2ccc(I)cc2)cc1)CN1CCCC1 (stereo unspecified)
Reply text: 123 to 124 °C

Inquiry: So what does the record say about melting point for `CN(C)Cc1ccc(CSCCNC(=N)N[N+](=O)[O-])o1` ?
Reply text: 103 to 104 °C

Inquiry: I'd like to know its melting point. The molecule in question is `COc1ccc(/C=C(\C)c2ccc3c(c2)C(C)(C)CCC3(C)C)cc1`
Reply text: 108 to 110 °C

Continuing:
Inquiry: Looking for the measured melting point of `COc1ccc(NCCCCCNC(C)=O)c2c1C(=O)c1ccccc1C2=O` , can you help?
Reply text: 145 to 147 °C

Inquiry: Reported melting point for `COc1ccc2nc(-c3cccc4ccccc34)[nH]c(=O)c2c1` : what is it?
Reply text: 174 to 175 °C

Inquiry: Requested read-out: melting point. Entry: `CC1(C2=C(O)C(=O)c3ccccc3C2=O)CCCC1`
Reply text: 116 to 118 °C

Inquiry: Using the record for `CCCCCCCCCC(=O)Nc1ccc(S(=O)(=O)Nc2nnc(S(N)(=O)=O)s2)cc1` , report its melting point.
Reply text: 242 to 243 °C

Inquiry: Any idea what its melting point is? The molecule is CC(=O)NC(NC(=O)c1ccccc1C(=O)O)C(=O)NCc1ccccc1 (stereo unspecified)
Reply text: 186 to 188 °C

Inquiry: Recorded melting point for `Cc1c(CC=CNC(=O)Nc2ccccc2)[nH]c(=O)c2c1ccc1nc(Nc3c(Cl)cccc3Cl)n(C)c12` , please?
Reply text: > 290 °C

Inquiry: Param item = `CCOC(=O)C(=O)CC(=O)c1cn(Cc2ccccc2F)c2ccccc2c1=O` ; retrieve measured melting point.
Reply text: 152 to 153 °C

Inquiry: Could you share which melting point value was measured for `CC(=O)c1c(N(C)C)c(-c2ccccc2)n(Cc2ccccc2Cl)c1C` ?
Reply text: 103 to 105 °C

Inquiry: So what does the record say about melting point for `CCN1C(=O)[C@@H](N)COc2ccccc21` ?
Reply text: 97 °C

Inquiry: Field request: melting point | item: `COc1ccc(/C=C/c2c(Cl)cncc2Cl)cc1OC1CCCC1`
Reply text: 99 to 101 °C

Inquiry: Looking for the measured melting point of `COC(=O)C1(C(=O)OC)CCC1(C(=O)OC)C(=O)OC` , can you help?
Reply text: 80.5 to 81 °C

Inquiry: What melting point value was documented for this molecule, CCOC(=O)c1c[nH]c(=S)n1C1CCc2cc(F)cc(F)c2C1 (stereo unspecified) ?
Reply text: 187 to 189 °C

Inquiry: Which melting point value belongs to `Cc1oc(-c2ccccc2)nc1COc1ccc(CCCCCO)cc1` ?
Reply text: 78 to 79 °C

Inquiry: // query melting point value for entry `O=C(NCCO)c1cccc(-c2cccc3nc(Cc4cccc(C(F)(F)F)c4)sc23)c1`
Reply text: 94 to 95 °C

Inquiry: What does the record list as melting point for `COc1nc(C)c(C)nc1NC(=S)N1CCN(c2cc(C)cc(C)c2)CC1` ?
Reply text: 160 to 162 °C

Inquiry: # input molecule: `O=C(OC[C@@H]1CC(c2ccc(-c3ccc(N4C[C@H](Cn5ccnn5)OC4=O)cc3F)cn2)=NO1)c1cnccn1` ; wanted: its melting point
Reply text: 205 to 226 °C

Inquiry: Report melting point for `COc1ccc(NN=C(Sc2ccc(OC)cc2)C(C)=O)cc1` please.
Reply text: 126 to 128 °C

Inquiry: Look at this molecule and give its reported melting point. O=C1NC(=O)C2(N1)C(=O)N(Cc1ccc(Cl)c(Cl)c1)c1ccccc12 (stereo unspecified)
Reply text: 269 to 271 °C
